Please provide measured pIC50 for the entries that follow.
Target under test: adenosine A2B receptor (Homo sapiens (Human), UniProt P29275)
Sequence (P29275 whole entry): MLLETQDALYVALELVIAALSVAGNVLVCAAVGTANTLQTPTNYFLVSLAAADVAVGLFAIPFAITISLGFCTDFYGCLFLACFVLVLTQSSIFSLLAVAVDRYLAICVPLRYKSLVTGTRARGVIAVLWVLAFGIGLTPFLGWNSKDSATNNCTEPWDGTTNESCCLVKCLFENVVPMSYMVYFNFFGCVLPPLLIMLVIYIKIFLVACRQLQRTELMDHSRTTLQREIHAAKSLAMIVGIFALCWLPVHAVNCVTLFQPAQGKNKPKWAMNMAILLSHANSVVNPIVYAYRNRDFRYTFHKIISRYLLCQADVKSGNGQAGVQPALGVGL
Test method notes: Adenosine receptor activity assay (Table 1), A2B activity
Assay type: biochemical
Cond: cAMP; read-out: Ave A2B cAMP IC50
pIC50: −log10 of the molar value.

Q. Answer with the recorded pIC50 for the compound listed here: C[C@H](Nc1nc(C(=O)N2CC(NC(=O)C34CCC(CC3)CC4)C2)c2sccc2n1)c1cncc(F)c1
A. 7.30 to 8.00

Q. Answer with the recorded pIC50 for the compound listed here: C[C@H](Nc1nc(C(=O)N2CC(NC(=O)C3(C(F)(F)F)CC3)C2)c2sccc2n1)c1cncc(F)c1
A. > 8.00

Q. Answer with the recorded pIC50 for the compound listed here: C[C@H](Nc1nc(C(=O)N2CC(NC(=O)c3ccc(Cl)cc3)C2)c2sccc2n1)c1cncc(F)c1
A. > 8.00

Q. Answer with the recorded pIC50 for the compound listed here: C[C@H](Nc1nc(C(=O)N2CC(C)(NC(=O)C3CC3)C2)c2sccc2n1)c1cncc(F)c1
A. 7.30 to 8.00

Q. Answer with the recorded pIC50 for the compound listed here: C[C@H](Nc1nc(C(=O)N2CC(NC(=O)NC3CCC3)C2)c2sccc2n1)c1cncc(F)c1
A. > 8.00

Q. Answer with the recorded pIC50 for the compound listed here: C[C@H](Nc1nc(C(=O)N2CC(NC(=O)c3cccc(F)c3)C2)c2sccc2n1)c1cncc(F)c1
A. > 8.00

Q. Answer with the recorded pIC50 for the compound listed here: Cc1cc(C)cc(C(=O)NC2CN(C(=O)c3nc(N[C@@H](C)c4cncc(F)c4)nc4ccsc34)C2)c1
A. 7.30 to 8.00

Q. Answer with the recorded pIC50 for the compound listed here: C[C@H](Nc1nc(C(=O)N2CC(NC(=O)C(C)(C)C(F)(F)F)C2)c2sccc2n1)c1cncc(F)c1
A. > 8.00

Q. Answer with the recorded pIC50 for the compound listed here: C[C@H](Nc1nc(C(=O)N2CC(NC(=O)OC3CCCC3)C2)c2sccc2n1)c1cncc(F)c1
A. 7.30 to 8.00

Q. Answer with the recorded pIC50 for the compound listed here: C[C@H](Nc1nc(C(=O)N2CC(NC(=O)[C@H]3CC[C@H](C)CC3)C2)c2sccc2n1)c1cncc(F)c1
A. 7.30 to 8.00

Q. Answer with the recorded pIC50 for the compound listed here: C[C@H](Nc1nc(C(=O)N2CC(NC(=O)C(C)(C)C)C2)c2sccc2n1)c1cncc(Cl)c1
A. 7.30 to 8.00

Q. Answer with the recorded pIC50 for the compound listed here: Cc1csc2c(C(=O)N3CC(NC(=O)c4cccc(Cl)c4)C3)nc(N[C@@H](C)c3cncc(F)c3)nc12
A. 7.30 to 8.00

Source: patent US11254686B1
